experiment: yeast display, Sf9 membrane polyspecificity reagent, FACS + sequencing; frameworks hold sequencing errors
measuredParameter: polyreactivity (PSR sort gate)

Examples with answers:
QVQLVESGGGLVQAGGSLRLSCAASGSTFWYYALGWYRQAPGKERELVAAIRWSDGSTYYADSVKGRFTSSRDNAKNTVYLQMNSLKPEDTAVYYCEYYYWGQGTQVTVSS : low polyreactivity
QVQLVESGGGLVQAGGSLRLSCAASGSTFVWNAMGWYRQAPGKERELVAAITNDGRTNYADSVKGRFTISRDNAKNTVYLQMNSLKPEDTAVYYCNADGFNSYWWNYYWGQGTQVTVSS : low polyreactivity
QVQLVESGGGLVQAGGGLRLSCAASGRIFFYAMGWYRQAPGKQRELVAAISWSGGSTYYADSVKGRFTISRDNAKNTVYLQMNSLKPEDTAVYYCAADYEGWGYDYRGDYWGQGTQLTVSS : low polyreactivity
QVQLVESGGGLVQAGGSLRISCAASGFTFWRYALGWYRQAPGKERELVAAISTGGSTNYADSVKGRFTISRDNAKNTVYLQMNSLKPEDTAVYYCNRQWNFTPYRRNYWGQGTQVTVSS : high polyreactivity
QVQLVESGGGLVQAGGSLRLSCAASGFTFSYYAMGWYRQAPGKERELVAAITSGGRTYYADSVKGRFTISRDNAKNTVYLQMNSLKPEDTAVYYCATSSQRWFYSGNYWGQGTQVTVSS : high polyreactivity
QVQLVESGGGLVQAGGSLRLSCAASGIIIRYYAMGWYRQAPGKERELVADITTGGTTYYADSVKGRFTISRDNAKNTVYLQMNSLKPEDTAVYYCAAYYFPTYSKTYIYPFDYWGQGTQVTVSS : low polyreactivity

Identify measured polyreactivity (PSR sort gate) corresponding to QVQLVESGGGLVQAGGSLRLSCAASGGTFVYYTMGWYRQAPGKERELVAAITQSGSTTYYADSVKGRFTISRDNAKNTVYLQMNSLKPEDTAVYYCARRYGTWNAYDYWGQGTQVTVSS
low polyreactivity

Identify measured polyreactivity (PSR sort gate) corresponding to QVQLVESGVGLVQAGGSLRLSCAASGFIFSSYAMGWYRQAPGKERELVAAISRSGGRTYYADSVKGRFTISRDNAKNTVYLQMNSLKPEDTAVYYCDATWLGTDGDDYWGQGTQVTVSS
high polyreactivity

Identify measured polyreactivity (PSR sort gate) corresponding to QVQLVESGGGLVQAGGSLRLSCAASGFTFTGYAMGWYRQAPGKERELVAAINRSGGTTYYADSVKGRFTISRDNAKNTVYLQMNSLKPEDTAVFYCAAFPSGRHRGDYWGQGTQVTVSS
high polyreactivity

Identify measured polyreactivity (PSR sort gate) corresponding to QVHLVESGGGLLQAGGSLRLSCAASGYTFVNYAMGWYREAPRKEMELVAAISYRGGSTSYADSVKGRFTISRDNAKNTVYLQMKSLKPEDSAVYYCAVVGQNWQSLRYDYWGQGTQVTVSS
high polyreactivity

Identify measured polyreactivity (PSR sort gate) corresponding to QVQLVESGGGLVQAGGSLRLSCAASGRIFSLYAMGWYRQAPGKERELVADITYRGGDSTYYADSVKGRFTISRDNAKNTVYLKMNSLKPEDTAVYYCAAGQPLYQRRHSSRTYYYWGQGTQVTVSS
high polyreactivity

----------
test: yeast display, Sf9 membrane polyspecificity reagent, FACS + sequencing; frameworks hold sequencing errors
measuredParameter: polyreactivity (PSR sort gate)

Examples with answers:
QVQLVESGGGLVQAGGSLRLSCAASGFIFVTNAMGWYRQAPGKERELVAAINWSGGRTYYADSVKGRFTISRDNAKNTVYLQMNSLKPEDTAVYYCAADPYARLGEYGYCGQGTQVTVSS : low polyreactivity
QVQLVESVGGLVQAGGSLRLSCAASGSTFTYNDLGWYRQAPGKERELVARITFSSGRTYYADSVKGRFTISRDNAKNTVYLQMNSLTPEDTAVYDCARQWYWPPGYYIGQGYEYWGQGTQVTVSS : low polyreactivity
QVQLVESGGGLVQAGGSLRLSCAASGRTLFPNVMGWYRQAPGKERELVAAITTIGGSTYYADSVKGRFTISRDNGKNTVFLQMNSLKPEDTEVYYCNARYRGRGLKFAYWGQGTQVTVSS : high polyreactivity
QVQLVESGGGLVQAGGSLRLSCAASGRIFRYNAMVWNIQAPGKERELDAAISYRGTRTYYADSVKGRFTISRDNAKNTVYLQMNSLKPEDTAVYYCAKDSGYYTADDYDYWGQVTQVTVSS : low polyreactivity
QVQLVESGGGLVQAGGSLRLSCAASGSIFFGYGMGWYRQAPGKERELVATITTSGGTYYADSVKGRFTISRDNAKNTVYLQMNSLKPEDTAVYYCAATAAALDGNTIMYYWGQGTQVTVSS : low polyreactivity

Identify measured polyreactivity (PSR sort gate) corresponding to QVQLVESGGGLVQAGGSLRLSCAASGSTIPSYAMGWYRQAPGKERELVASITYSDGTTRYADSVKGRFTISRDNAMNPVYFQMNSLKPEDSAVYYCNAVYYREGMDYWGQGTQVTVSS
low polyreactivity

Identify measured polyreactivity (PSR sort gate) corresponding to QVQLVESGGGLVQAGGSLRLSCAASGFTFFFYAMGWYRQAPGKVRELVAGISQSGGNTNYADSVKGRFTISRDNAKNTVYLQMNSLKPEDTAVYYCAKTRYQYWRVTAFDYWGQGTQVTVSS
low polyreactivity

Identify measured polyreactivity (PSR sort gate) corresponding to QVQLVESGGGLVQAGGSLRFSCAASGSIFQHYAMGWYRQAPGKERELVAAISWSGGSTYYADSVKGRFSISRDNAKNTVYLQMNSLKPEDTAVYYCAATKRRFVKFDYWGQGTQVTVSS
low polyreactivity

Identify measured polyreactivity (PSR sort gate) corresponding to QVQLHESGGGLVQAGGSLRLSCAASGTISQEDWMGWYRKAPRKEREFVAAIGLGSNTNYADSLKGRFTISRDNANNTVYLQMNSLKPEDTAVYYCAVSVWQYSDHVYRGQGTQVTVSS
low polyreactivity

Identify measured polyreactivity (PSR sort gate) corresponding to QVQLVESGGGLVQAGGSLRLSCASSGRTLGGYAMGWYRQAPGKERELVAAITRRGGSTYYADSVKGRFTISRDNAKNTVYLLMNSLKTEDTAVYYCAARWYARSLTRFNYWGEGTQVTVSS
high polyreactivity

Identify measured polyreactivity (PSR sort gate) corresponding to QVQLVESGGGLVQAGGSLRLSCAASGRIFGYYTMGWYRQAPGKERELVAAINGRGTSTYYADSVKGRFTISRDNAKNTVYLQMNSLKPEDTAVYYCAADGYTRADDYWGQGTQVTVSS
high polyreactivity

Identify measured polyreactivity (PSR sort gate) corresponding to QVQLVESGGGLVQAGGSLRLSCAASGSTVYASVMGWSRQAPGKARELVAAITSAGSTDYADSVKGRFTISRDNAKNTVYLQMNSRKPEDTAVYYCAADAYTDSPYYKYDYWGQGTQVTVSS
low polyreactivity

Identify measured polyreactivity (PSR sort gate) corresponding to QVQLVESGGGLVQAGGSLRLICAASGVIFLRYAMGWYRQAPGKERELVAAISSSGDITYYADSVKGRFTISRDNAKNTVYLQMYSLKPEDTAVYYCAATVGLWEYGYWGQGTQVTVSS
low polyreactivity

Identify measured polyreactivity (PSR sort gate) corresponding to QVQLVESGGGLVQAGGSLRLSCAASGLTFRYYTMGWYRQAPGKERELVAAITKSGSSTYYADSVKGRFTISRDNAKNTVYLQMNSLKPEDTAVYYCAKDSNHWGQGTQVTVSS
high polyreactivity

Identify measured polyreactivity (PSR sort gate) corresponding to QVQLVESGGGLVQAGGSLRLSCAASGSISFLYTMGWYRQAPGKERELVAAITGSTASTYYADSVKGCFTISRDNAKNTVYLQMNSLKPEDTAVYYCAAYWYAEGYWVSRDYWGQGTQVTVSS
low polyreactivity

Identify measured polyreactivity (PSR sort gate) corresponding to QVQLVESGGGLVQAGGSLRLICAASGIIFDPNAMGWYRQAPGKERELVAAITHTGSTSYADSVKGRFTISRDNAKNTVYLQMNRLNPEDTAVYYCAAGTWVRAWYRYWYDFEYWGQGTQVTVSS
high polyreactivity

Identify measured polyreactivity (PSR sort gate) corresponding to QVQLVESGGGLVQAGGSLRLSCAASGSNIGWNTMGWYRQAPGKERELVAAITSGGRTYYADSVKGRFTISRDNAKNTVYLQINSLKPEDTAVYYCKAVVRHTYRRFDYWGQGTQVTVSS
high polyreactivity

Identify measured polyreactivity (PSR sort gate) corresponding to QVQLVESGGGLVQAGGSLRLSSAASGLTFINYDMGWYRQAPAKERELVAAISQIGTSTYYADSVKRRFTISRDNAKNTVYLQMNSLKPEDTAVYYCAAEFPTVYIPWSEMDYWGQGTQVTVSS
high polyreactivity

Identify measured polyreactivity (PSR sort gate) corresponding to QVQLVESGGGLVPAGGSLRLSCPAGGFIFGSNVMGWYRQAPGKEREFVAAITYGGVSTYYADSVKGRFTISRDNAKNTVYLQMNSLKPEDTAVYYCNTDRGKRLGKQASSKRYDYWGQGTQVTVSS
high polyreactivity

Identify measured polyreactivity (PSR sort gate) corresponding to QVQLVESGGGLVQAGGSLRLICAASGSTFKWYAMGWYRQAPGKERELVAAISSSGGTTYYADSVKGRFTISRDNAKNTVYLQMNSLKPEDTAVYYCAKPYLYSGYGYWGQGTQVTVSS
high polyreactivity

Identify measured polyreactivity (PSR sort gate) corresponding to QVQLVESGGGLVQSGGSLRLSCAASGGTFHKYDMGWYRQAPGKERELVAAITRSGGSTYYADSVKGRFTISRDNAKNTVYLQMNSLKPEDTAVYFCNAGKRGSTYYYWGQGTQVTVSS
high polyreactivity

Cited source for all entries: the nanobody polyreactivity screen of Harvey et al. (2022)
